Here, each record is paired with measured Ratio data.
- SYSTEM_NAME: UniProtKB P08183
- Sequence (P08183 whole entry): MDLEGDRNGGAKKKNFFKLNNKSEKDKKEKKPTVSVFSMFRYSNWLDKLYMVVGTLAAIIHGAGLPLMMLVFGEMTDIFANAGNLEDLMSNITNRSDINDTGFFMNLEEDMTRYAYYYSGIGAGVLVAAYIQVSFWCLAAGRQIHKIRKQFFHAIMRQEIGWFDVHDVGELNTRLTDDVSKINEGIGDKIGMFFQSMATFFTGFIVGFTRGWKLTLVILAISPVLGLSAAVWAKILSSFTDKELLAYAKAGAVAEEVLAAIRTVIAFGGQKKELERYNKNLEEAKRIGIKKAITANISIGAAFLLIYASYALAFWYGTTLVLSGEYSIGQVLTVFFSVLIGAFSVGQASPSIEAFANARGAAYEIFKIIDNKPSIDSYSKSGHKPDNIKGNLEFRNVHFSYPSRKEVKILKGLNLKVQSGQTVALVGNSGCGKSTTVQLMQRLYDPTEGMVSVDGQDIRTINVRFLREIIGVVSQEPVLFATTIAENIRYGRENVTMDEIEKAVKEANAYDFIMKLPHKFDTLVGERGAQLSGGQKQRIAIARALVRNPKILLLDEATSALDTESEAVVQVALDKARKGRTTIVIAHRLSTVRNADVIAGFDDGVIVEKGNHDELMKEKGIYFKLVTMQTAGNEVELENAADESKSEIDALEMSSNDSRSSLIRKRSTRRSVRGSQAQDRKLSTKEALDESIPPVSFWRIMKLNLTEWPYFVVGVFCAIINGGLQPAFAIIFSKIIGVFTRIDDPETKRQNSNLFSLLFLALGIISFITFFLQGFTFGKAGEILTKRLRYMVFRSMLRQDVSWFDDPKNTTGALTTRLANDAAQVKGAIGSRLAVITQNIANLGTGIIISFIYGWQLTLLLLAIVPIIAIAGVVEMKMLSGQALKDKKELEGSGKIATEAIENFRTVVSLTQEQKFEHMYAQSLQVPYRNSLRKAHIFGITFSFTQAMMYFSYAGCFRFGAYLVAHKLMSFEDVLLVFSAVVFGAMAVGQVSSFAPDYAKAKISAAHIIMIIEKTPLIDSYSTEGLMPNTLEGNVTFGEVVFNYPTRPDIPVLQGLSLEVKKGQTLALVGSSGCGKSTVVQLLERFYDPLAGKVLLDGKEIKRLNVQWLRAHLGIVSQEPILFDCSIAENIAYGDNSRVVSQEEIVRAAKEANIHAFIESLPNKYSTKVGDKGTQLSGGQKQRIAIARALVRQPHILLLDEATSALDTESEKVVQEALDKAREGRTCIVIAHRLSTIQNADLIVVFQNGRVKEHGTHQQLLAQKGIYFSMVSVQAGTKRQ
- ASSAY_DETAILS: Inhibition of MDR1-mediated rhodamine 123 uptake expressed in mouse L5178Y cells assessed as fluorescence activity ratio at 6 uM after 10 mins by flow cytometry relative to parent cells
MEASURED_ENDPOINT: Ratio

{"columns": ["MOLECULE", "ENDPOINT_VALUE"],
 "data": [
  ["CC(=O)O[C@H]1[C@H](OC(C)=O)/C(C)=C\\[C@H]2[C@@H](OC(=O)c3ccccc3)[C@@H](C)C[C@]2(O)[C@@H](OC(C)=O)[C@@H](C)/C=C/C(C)(C)[C@@H]1OC(C)=O (relative stereo) [EUPHOMELLIFERENE B]", 1.4],
  ["CC(=O)O[C@H]1[C@H](OC(C)=O)/C(C)=C\\[C@H]2[C@@H](OC(=O)c3ccccc3)[C@@H](C)C[C@]2(OC(C)=O)[C@@H](OC(C)=O)[C@@H](C)/C=C/C(C)(C)[C@@H]1OC(C)=O (relative stereo) [EUPHOMELLIFERENE A]", 12.4],
  ["CC(=O)O[C@H]1[C@H](OC(C)=O)/C(C)=C\\[C@H]2[C@@H](OC(=O)c3ccccc3)[C@H](C)C[C@]2(O)C(=O)[C@@H](C)/C=C/C(C)(C)[C@@H]1OC(C)=O (relative stereo) [EUPHOMELLIFERINE]", 2.9],
  ["CC(=O)O[C@@H]1[C@@H](OC(C)=O)C(C)(C)/C=C/[C@H](C)C(=O)[C@@]2(OC(C)=O)C[C@@H](C)[C@H](OC(=O)c3ccccc3)/C2=C/[C@](C)(O)[C@H]1OC(C)=O", 1.4]
]}
